I'd be grateful if you could share measured kon for these entries.
- system: T1, 人源hCD73-His (北京义翘神州, Catalog 10904-H08H) (human, UniProt P21589 27-547)
- T1 construct: Bought protein; also called 人CD73; not shown: His tag
- T1 sequence (looked up): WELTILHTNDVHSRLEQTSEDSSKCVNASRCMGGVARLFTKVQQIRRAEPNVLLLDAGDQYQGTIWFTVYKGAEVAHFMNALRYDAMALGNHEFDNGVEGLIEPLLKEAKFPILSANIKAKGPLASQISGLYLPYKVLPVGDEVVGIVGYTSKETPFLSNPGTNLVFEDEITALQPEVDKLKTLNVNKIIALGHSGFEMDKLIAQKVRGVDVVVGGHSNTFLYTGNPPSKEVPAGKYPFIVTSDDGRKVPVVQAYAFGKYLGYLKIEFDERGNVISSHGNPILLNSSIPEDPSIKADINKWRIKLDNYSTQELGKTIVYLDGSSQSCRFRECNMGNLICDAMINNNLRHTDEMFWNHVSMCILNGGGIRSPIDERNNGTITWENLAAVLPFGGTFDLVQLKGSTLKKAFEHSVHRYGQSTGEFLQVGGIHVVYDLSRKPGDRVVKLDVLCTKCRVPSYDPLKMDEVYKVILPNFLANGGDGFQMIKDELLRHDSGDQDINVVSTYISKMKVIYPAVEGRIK
- procedureText: SPR, Biacore T200, antibody captured on Protein A chip, hCD73-His as analyte from 32 nM, 1:1 model
All answers are understood in M⁻¹ s⁻¹, so give the number only.

Lookup: Specify measured kon for 抗体P59-L12 (antibody, IgG1, V domains shown) VH: EVQLVESGGGLVQPGGSLRLSCAASGFSFDTYAMSWVRQAPGKGLEWVSAISGDTGVTGYADSVKGRFTISRDNSKNTLYLQMNSLRAEDTAVYYCARDRYAYLVDGWFDYWGQGTLVTVSS VL: DIQMTQSPSSLSASVGDRVTITCRASQGISSYLAWYQQKPGKAPKLLIYAASSLQSGVPSRFSGSGSGTDFTLTISSLQPEDFATYYCQTSDFFPNPVTFGQGTKVEIK .
Found: 827000

Lookup: For the binder 抗体P59-L1 (antibody, IgG1, V domains shown) VH: EVQLVESGGGLVQPGGSLRLSCAASGFSFDTYAMSWVRQAPGKGLEWVSAISGDTGVTGYADSVKGRFTISRDNSKNTLYLQMNSLRAEDTAVYYCARDRYAYLVDGWFDYWGQGTLVTVSS VL: DIQMTQSPSSLSASVGDRVTITCRASQGISSYLAWYQQKPGKAPKLLIYAASSLQSGVPSRFSGSGSGTDFTLTISSLQPEDFATYYCQQASYTGDPVTFGQGTKVEIK , report kon.
Found: 726000

Lookup: Tell us which kon value is on record for 抗体P59-L17 (antibody, IgG1, V domains shown, also called P59-17) VH: EVQLVESGGGLVQPGGSLRLSCAASGFSFDTYAMSWVRQAPGKGLEWVSAISGDTGVTGYADSVKGRFTISRDNSKNTLYLQMNSLRAEDTAVYYCARDRYAYLVDGWFDYWGQGTLVTVSS VL: DIQMTQSPSSLSASVGDRVTITCRASQGISSYLAWYQQKPGKAPKLLIYAASSLQSGVPSRFSGSGSGTDFTLTISSLQPEDFATYYCQTWSGWPDYLTFGQGTKVEIK
Found: 221000

Lookup: Return value of kon for input 抗体P59-L6 (antibody, IgG1, V domains shown) VH: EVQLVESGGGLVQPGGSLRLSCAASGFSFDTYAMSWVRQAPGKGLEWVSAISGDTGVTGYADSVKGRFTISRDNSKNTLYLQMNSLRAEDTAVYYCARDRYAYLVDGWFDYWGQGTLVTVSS VL: DIQMTQSPSSLSASVGDRVTITCRASQGISSYLAWYQQKPGKAPKLLIYAASSLQSGVPSRFSGSGSGTDFTLTISSLQPEDFATYYCAQYDFSFYGVTFGQGTKVEIK , no commentary.
Found: 107000
